Hello, the source for this data is ChEMBL document CHEMBL1240409, in case you need it.

# Tested on: DU-145
# protocol notes: Growth inhibition of human DU145 cells after 96 hrs by trypan blue exclusion assay
# Assay type: functional
# condition description: DU-145, 96 h
Assignment: determine reported log10 GI50 for the given compounds.
The common logarithm of GI50 in µM is what is listed.

Solved entries (count: 4):
O=C(/C(=C\c1ccc(O)cc1O)SCc1ccc(Cl)cc1)c1ccc(Cl)cc1; 1.70
Cc1ccc(C)c(/C=C(\C(=O)c2ccc(Cl)cc2)S(=O)(=O)Cc2ccc(Cl)cc2)c1; 1.00
O=C(/C(=C\c1ccc(I)cc1)Sc1ccc(Br)cc1)c1ccc(Br)cc1; 0.00
CCOc1ccc(/C=C(\C(=O)c2ccc(Cl)cc2)S(=O)(=O)Cc2ccc(F)cc2)cc1OC; 1.70

Consider the following items and state reported log10 GI50 for each.
1. COc1ccccc1/C=C(/SCc1ccc(F)cc1)C(=O)c1ccc(Cl)cc1
2. COc1cc(OC)c(/C=C(/SCc2ccc(Cl)c(Cl)c2)C(=O)c2ccc(Cl)cc2)c(OC)c1
3. O=C(/C(=C\c1ccc(Cl)cc1)SCc1ccc(Br)cc1)c1ccccc1Cl
4. O=C(/C(=C\c1ccc(F)cc1)S(=O)(=O)c1ccc(Br)cc1)c1ccc(Br)cc1
5. Cc1ccc(S/C(=C/c2ccc(Cl)cc2)C(=O)c2ccc(Br)cc2)cc1
6. Cc1ccc(S(=O)(=O)/C(=C/c2sccc2C)C(=O)c2ccc(Cl)cc2)cc1

output:
1: 1.00; 2: 1.00; 3: 1.40; 4: 0.60; 5: 1.00; 6: 1.00

Consider the following items and state reported log10 GI50 for each.
1. O=C(/C(=C\c1ccccc1O)Sc1ccccc1Br)c1ccc(Br)cc1
2. COc1cc(OC)c(/C=C(\C(=O)c2ccc(Cl)cc2)S(=O)(=O)c2ccc(C)cc2)c(OC)c1
3. COc1cc(OC)c(/C=C(/SCc2ccc(F)cc2)C(=O)c2ccc(Br)cc2)c(OC)c1
4. O=C(/C(=C\c1ccc(O)cc1)SCc1ccc(F)cc1)c1ccc(Br)cc1

output:
[1.70, 1.40, 0.00, 1.00]

Consider the following items and state reported log10 GI50 for each.
1. O=C(/C(=C\c1ccc(OCc2ccccc2)cc1)SCc1cccc(Cl)c1)c1ccc(Br)cc1
2. O=C(/C(=C\c1ccc(Br)c(O)c1)S(=O)(=O)c1ccc(Br)cc1)c1ccc(Br)cc1

output:
0.00
1.70

Consider the following items and state reported log10 GI50 for each.
1. COc1ccccc1/C=C(\C(=O)c1ccc(Br)cc1)S(=O)(=O)c1ccc(C)cc1
2. O=C(O)c1ccc(C(=O)/C(=C\c2ccc(Cl)c([N+](=O)[O-])c2)SCc2ccc(Cl)cc2)cc1
3. O=C(/C(=C\c1ccc(Cl)cc1)S(=O)(=O)c1ccc(Br)cc1)c1ccc(Br)cc1

output:
1. 0.00
2. 0.00
3. 1.70
